Cited source for all entries: patent US8618138B2

- System: M17-TAU P301L cells
- assay-details: TAU cytotoxicity assay: LDH leakage of retinoic acid incubated M17-TAU P301L cells
- Type: cell-based, human
- details: Homo sapiens, 168 h, reduction of LDH activity of retinoic acid incubated M17-TAU P301L cells, 7 days
pEC50: −log10 of the molar value.
Overview of recorded pEC50 for various compounds
value-type: pEC50

compound: O=C(NCCc1c[nH]c2ccc(Cl)cc12)c1noc(Cc2ccc(F)cc2)n1
value-type: pEC50
quantitative-readout: 7.49

compound: COc1cccc(N2CCC(C(=O)NCCc3c[nH]c4ccc(Cl)cc34)C2=O)c1 (stereo not shown)
value-type: pEC50
quantitative-readout: 6.63

compound: O=C(NCCc1c[nH]c2ccc(Cl)cc12)c1noc(Cc2ccc(C(F)(F)F)cc2)n1
value-type: pEC50
quantitative-readout: 7.49

compound: Cc1ccc2[nH]cc(CCNC(=O)c3cc(Cc4cccc(F)c4)on3)c2c1
value-type: pEC50
quantitative-readout: 7.72

====

Overview of recorded log10 of EC50 for various compounds
- Test system: M17-TAU P301L cells
- assay-details: TAU cytotoxicity assay: LDH leakage of retinoic acid incubated M17-TAU P301L cells
- Format: cell-based, human
- details: Homo sapiens, 168 h, reduction of LDH activity of retinoic acid incubated M17-TAU P301L cells, 7 days
value-type: log10 of EC50 (log10 of the value in nM)

compound: Cn1nccc1C(=O)NCCc1c[nH]c2ccc(Cl)cc12
log10 of EC50: 3.01
--
compound: Cn1nc(C(=O)NCCc2c[nH]c3ccc(Cl)cc23)cc1-c1ccco1
log10 of EC50: 1.36
--
compound: Cc1cc(C(=O)NCCc2c[nH]c3ccc(Cl)cc23)no1
log10 of EC50: 1.48
--
compound: Cc1noc(-c2ccccc2)c1C(=O)NCCc1c[nH]c2ccc(Cl)cc12
log10 of EC50: 2.43
--
compound: O=C(NCCc1c[nH]c2ccc(Cl)cc12)c1cc(Cc2ccco2)on1
log10 of EC50: 1.34
--
compound: O=C(NCCc1c[nH]c2ccc(Cl)cc12)C1CCN(c2ccc(C(F)(F)F)c(F)c2)C1=O (stereo not drawn)
log10 of EC50: 4.37

====

- Test system: M17-TAU P301L cells
- assay-details: TAU cytotoxicity assay: LDH leakage of retinoic acid incubated M17-TAU P301L cells
- Assay type: cell-based, human
- details: Homo sapiens, 168 h, reduction of LDH activity of retinoic acid incubated M17-TAU P301L cells, 7 days
pEC50: −log10 of the molar value.
value-type: pEC50

compound: O=C(NCCc1c[nH]c2ccc(Cl)cc12)c1cc(Cc2cccc(C(F)(F)F)c2)on1 [Example D30]
quantitative-readout: 7.38
--
compound: COc1ccc(OC)c(Cc2nc(C(=O)NCCc3c[nH]c4ccc(Cl)cc34)no2)c1 [Example D179]
quantitative-readout: 7.29
--
compound: CC(C)(C)c1cc(C(=O)NCCc2c[nH]c3ccc(Cl)cc23)n(Cc2ccccc2)n1 [Example D120]
quantitative-readout: 6.06
--
compound: CC(c1ccccc1)N1CCC(C(=O)NCCc2c[nH]c3ccc(Cl)cc23)C1=O (single isomer, unassigned) [D156 Fraction A]
quantitative-readout: 6.09
--
compound: Cc1nc(NCCc2ccccc2)sc1C(=O)NCCc1c[nH]c2ccccc12 [Example D39]
quantitative-readout: 7.06
--
compound: O=C(NCCc1c[nH]c2ccc(Cl)cc12)c1cc(Cn2cccn2)on1 [Example D42]
quantitative-readout: 7.04
--
compound: Cn1ccc2cc(N3CCC(C(=O)NCCc4c[nH]c5ccc(Cl)cc45)C3=O)ccc21 (stereo not drawn) [Example D167]
quantitative-readout: 6.30
--
compound: O=C(NCCc1c[nH]c2ccc(Cl)cc12)c1noc(Cc2ccc(Cl)c(Cl)c2)n1 [Example D174]
quantitative-readout: 6.55
--
compound: O=C(NCCc1c[nH]c2ccc(Cl)cc12)C1=N[C@@H](C2CCCCC2)CO1 [Example D59]
quantitative-readout: 6.68
--
compound: CCc1ccc(N2CCC(C(=O)NCCc3c[nH]c4ccc(C)cc34)C2=O)cc1 (stereo not drawn) [Example D48]
quantitative-readout: 6.86
--
compound: COc1cccc(Cc2nc(C(=O)NCCc3c[nH]c4ccc(Cl)cc34)no2)c1 [Example D177]
quantitative-readout: 7.54
--
compound: O=C(NCCc1c[nH]c2ccc(Cl)cc12)c1noc(Cc2cccc(C(F)(F)F)c2)n1 [Example D186]
quantitative-readout: 6.92
--
compound: Cc1ccc(N2CCC(C(=O)NCCc3c[nH]c4ccc(Cl)cc34)C2=O)cc1C (stereo not drawn) [Example D143]
quantitative-readout: 5.99
--
compound: O=C(c1cc(Cc2cc(F)ccc2F)on1)N1CCC(c2c[nH]c3ccc(Cl)cc23)CC1 [Example D139]
quantitative-readout: 6.73
--
compound: Cc1oc(-c2ccccc2)nc1C(=O)NCCc1c[nH]c2ccc(Cl)cc12 [Example D62]
quantitative-readout: 6.63
